test: Cytotoxicity against african green monkey Vero cells assessed as cell viability at 8 to 800 ug/ml after 24 hrs by MTT assay; format: cell-based; conditions: chlorocebus sabaeus, read-out: Activity
readout.label: viability at 24 h (%)
// note: answer is a bare numeric in %

Consider "CN1C(=O)C(/C=N/c2ccccc2O)C(=O)N(C)C1=O" . Its measured viability at 24 h is 35

* * *

system: Candida albicans; assay: Antifungal activity against Candida albicans ATCC 10231 after 48 to 72 hrs by broth microdilution method; assay type: functional
Activity calls are given as the source filed them. No rule for the calls is given here.
readout.label: MIC80

Use the examples below as a reference point.
CN1C(=O)C(/C=N/NC(=O)c2ccccc2)C(=O)N(C)C1=O: inactive
O=C1NC(=O)C(/C=N/c2ccncc2)C(=O)N1: inactive
COc1ccc(C(=O)N/N=C/C2C(=O)N(C)C(=O)N(C)C2=O)cc1: 62 µg/mL
C/C(=N\Nc1ccccc1)C1C(=O)N(C)C(=O)N(C)C1=O: 2 µg/mL
CN1C(=O)C(/C=N/c2ccc([N+](=O)[O-])cc2)C(=O)N(C)C1=O: inactive
O=C1NC(=O)C(/C=N/c2cccc(O)c2)C(=O)N1: inactive

For "COc1ccc(/N=C(\C)C2C(=O)NC(=O)NC2=O)cc1" the molecule record lists MIC80 as inactive

Summary for this molecule, CCCCN1C(=O)NC(=O)C(/C(=N/Nc2ccc([N+](=O)[O-])cc2[N+](=O)[O-])c2ccccc2)C1=O (stereo unspecified) : MIC80 is inactive

* * *

test system: Candida albicans; assay: Antifungal activity against Candida albicans ATCC 10231 after 48 to 72 hrs by broth microdilution method; format: functional
Activity calls are given as the source filed them. How the calls were made is not given here.
readout.label: MIC80

C/C(=N\NS(=O)(=O)c1ccccc1)C1C(=O)N(C)C(=O)N(C)C1=O: inactive
C/C(=N\Nc1ccc([N+](=O)[O-])cc1[N+](=O)[O-])C1C(=O)NC(=O)NC1=O: inactive
Cc1ccc(S(=O)(=O)N/N=C/C2C(=O)N(C)C(=O)N(C)C2=O)cc1: inactive
CN1C(=O)C(/C(=N/Nc2ccc([N+](=O)[O-])cc2[N+](=O)[O-])c2ccc(O)cc2)C(=O)N(C)C1=O: inactive

Form field MIC80, entry "COc1ccc(C(=O)N/N=C(\C)C2C(=O)NC(=O)NC2=O)cc1" : inactive

The measured MIC80 associated with "C/C(=N\c1ccc(O)cc1)C1C(=O)N(C)C(=O)N(C)C1=O" reads inactive

MIC80 measured on "O=C1NC(=O)C(/C=N/Nc2ccc([N+](=O)[O-])cc2[N+](=O)[O-])C(=O)N1" = inactive

Memo: "CN1C(=O)C(/C=N/c2ccccc2)C(=O)N(C)C1=O" , reported MIC80: inactive

* * *

system: Candida albicans; test: Antifungal activity against Candida albicans ATCC 10231 after 48 to 72 hrs by broth microdilution method; format: functional
Activity calls are given as the source filed them. The rule behind the calls is not given here.
readout.label: MIC80

The examples below pair each entry with its known result.
C/C(=N\c1ccc(O)cc1)C1C(=O)NC(=O)NC1=O: inactive
COc1ccc(C=C2C(=O)N(C)C(=O)N(C)C2=O)cc1: inactive
CN1C(=O)C(=Cc2ccc(O)cc2)C(=O)N(C)C1=O: inactive
CN1C(=O)C(/C=N/c2ccc(O)cc2)C(=O)N(C)C1=O: inactive

Moving on to another compound below.
response.value for "COc1ccc(C(=O)N/N=C(\C)C2C(=O)N(C)C(=O)N(C)C2=O)cc1" (field: MIC80) = inactive
